test system: HCC 2998; experiment: NCI tumour cell line growth inhibition, 48 h
Calls of active or inactive are those of the source. No stated cut-off is given here; in the data, active = GI50 up to about 1.1 µM and inactive = higher.
READOUT KIND: GI50

Consider the reported GI50 for these molecules:
{"MOLECULE": "CCOC(CNc1nn2c(C)nnc2s1)OCC", "TARGET DESC": "HCC 2998", "GI50": "> 100 µM (inactive)"}
{"MOLECULE": "CC(=O)C1C(=O)C(=O)N(c2ccccc2C(C)C)C1=O (stereo unspecified)", "TARGET DESC": "HCC 2998", "GI50": "> 100 µM (inactive)"}
{"MOLECULE": "Cc1ccc(NC(=O)CCC(=O)C2Cc3ccccc3C2=O)cc1C (stereo unspecified)", "TARGET DESC": "HCC 2998", "GI50": "> 100 µM (inactive)"}

Reported GI50 for O=c1c2ccccc2n2c(-c3ccc(O)cc3)nnc2n1-c1ccccc1 was 49.1 µM (inactive)

What the record says about CCN1C(=O)C(N=[N+]=[N-])(c2ccccc2)C(=O)c2ccccc21 (stereo unspecified) : GI50 is > 100 µM (inactive)

# GI50 (molecule: Cc1cc(NC(=O)NC(=O)c2ccccc2NC(=O)CN(C)C)ccc1Oc1ncc(Br)cn1 ) is 1.22 µM (inactive)

The recorded GI50 for entry Cc1ccc(-c2cc(-c3ccc(Cl)cc3)nc(/N=C3\C(=O)N(CN4CCCCC4)c4ccc(Cl)cc43)n2)cc1 equals 14.9 µM (inactive)

Reported GI50 ( c1ccc(C[n+]2ccc3c(c2)CCCC3)cc1 ) = 22.9 µM (inactive)

// sample C=C1C(=O)OC2CC(C)C(C(O)CC(C)O)=CCC12 (stereo unspecified) , its GI50 was 18 µM (inactive)

The reported value for CC(C)=C1C(=O)C[C@@]2(C)C[C@H]3OC3(C)CC/C=C(/C)CCC12 (stereo partly specified) in terms of GI50 is > 100 µM (inactive)

Value of GI50 reported for the molecule N=c1c2sc3nc4ccccc4n3c2ncn1Cc1ccccc1 is > 100 µM (inactive)

* * *

Known GI50 of a selection of compounds
tested on: UO-31; assay: NCI tumour cell line growth inhibition, 48 h
Calls of active or inactive are those of the source. Cut-off read from the data, not from the text of the source: active = GI50 up to about 1.1 µM and inactive = higher.

Before answering, review these 4 worked examples.
{"COMPOUND": "CCCCCCCCNC(=O)SCCCC", "TARGET DESC": "UO-31", "RESULT": "26.5 µM (inactive)"}
{"COMPOUND": "O=C(NNC(=O)c1c(Cl)c(Cl)c(Cl)c(Cl)c1-c1nc2ccccc2[nH]1)c1ccc(Cl)cc1", "TARGET DESC": "UO-31", "RESULT": "30.3 µM (inactive)"}
{"COMPOUND": "O=C(Nc1cccc2c1C(=O)c1c(NC(=O)c3ccccc3)ccc(Nc3cccc4c3C(=O)c3ccccc3C4=O)c1C2=O)c1ccccc1", "TARGET DESC": "UO-31", "RESULT": "> 100 µM (inactive)"}
{"COMPOUND": "NNC(=O)Nc1nc2ccc(NN)cc2[nH]1", "TARGET DESC": "UO-31", "RESULT": "60.5 µM (inactive)"}

Form field GI50, entry CCCCCCC(C)CC(CCCCCC)NCCOC(=O)c1ccc([N+](=O)[O-])cc1 (stereo not given) : 10.4 µM (inactive)

Provenance of the data: ChEMBL document CHEMBL1201862
